Measured pD2 at 5th hr by item
tested on: phenylephrine-induced contractions in rat thoracic aorta; test: LPS-induced vascular hyporeactivity: phenylephrine-induced contractions in rat thoracic aorta; format: in vivo, Wistar rat; conditions: agent given after LPS injection (1 hr); pD2 to phenylephrine
Kindly provide the number alone.

Example entries begin here.
INSERT INTO results (compound, readout_number) VALUES
  ('O=c1n(CCCN2CCN(c3cccc(Cl)c3)CC2)nc2ccccn12', 5.04),
  ('COC(=O)[C@@H]1[C@H]2C[C@H]3c4[nH]c5ccccc5c4CCN3C[C@@H]2CC[C@@H]1O', 5.13),
  ('Cl.N=C(N)NN [Aminoguanidine, aminoguanidine HCl]', 5.81);

Query: Which measured pD2 at 5th hr belongs to CC=Cc1ccc(OCC(O)CN2CCN(c3cccc(Cl)c3)CC2)c(OC)c1 (stereo not shown) , tested on phenylephrine-induced contractions in rat thoracic aorta?
Reply: 5.57
